For each of the substances below, state its Kd.
Molecular target: Human immunodeficiency virus type 1 integrase (Human immunodeficiency virus 1)
Experiment: Binding affinity to HIV1 integrase by fluorescence anisotrophy

Item `H-QRQIRSISGWILSTYLGRPAEPVPLQ-OH` has what recorded Kd? 11.2 µM

Quick one: Kd of `H-RSISGWILSTYLGRP-OH` ? 6.9 µM

Returns the measured Kd for the input substance. Input: H-LKTVRLIKFLY-OH [LKTVRLIKFLY] 2.8 µM

I have this substance here, `H-FVSTHFSVPASPWLLLIDIV-OH` , and I need its recorded Kd. 7.5 µM

###

Target: Human immunodeficiency virus type 1 integrase (Human immunodeficiency virus 1, UniProt Q7ZJM1)
Sequence (Q7ZJM1 whole entry): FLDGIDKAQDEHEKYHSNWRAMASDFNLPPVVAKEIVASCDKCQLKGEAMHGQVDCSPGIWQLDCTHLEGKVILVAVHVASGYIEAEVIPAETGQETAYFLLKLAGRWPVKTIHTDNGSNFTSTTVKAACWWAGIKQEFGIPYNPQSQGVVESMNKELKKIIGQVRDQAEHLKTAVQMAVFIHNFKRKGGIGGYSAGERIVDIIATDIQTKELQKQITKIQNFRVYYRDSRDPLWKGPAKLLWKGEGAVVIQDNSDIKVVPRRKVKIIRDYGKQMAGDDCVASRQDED
Test: Inhibition of HIV1 integrase by quantitative ELISA
What IC50 was measured for each of the following?
Lab book: enter the figure in µM, no units written.

Fill in: IC50 of `H-RSISGWILSTYLGRP-OH` is ___ 25

IC50 lookup needed for H-LKTVRLIKFLY-OH [LKTVRLIKFLY] , thanks. 25

###

Target: Human immunodeficiency virus type 1 integrase (Human immunodeficiency virus 1)
Assay: Inhibition of recombinant HIV1 integrase strand transfer activity
The source made the active and inactive calls. The rule behind the calls is not given here.
Bench note: report the call from 1 = active, 0 = inactive

What call does the record list for `H-WRERQRQIRSISGWI-OH` ? 0

What outcome does the record of this test show for `H-RLIKFLYQSNPPPSP-OH` ? 0

Fill in: this test's call for `H-QRQIRSISGWILSTY-OH` is ___ 1

Give the logged outcome of this assay for the following substance: `H-SGDSDEELLKTVRLI-OH` 0

I would be grateful if you could indicate the recorded call for `H-STYLGRPAEPVPLQL-OH` . 0

Assay outcome for `H-GWILSTYLGRPAEPV-OH` : what was it? 0

State the result this test recorded for H-LKTVRLIKFLY-OH [LKTVRLIKFLY] . 1

Answer briefly: the call reported for `H-DEELLKTVRLIKFLY-OH` in this assay. 1

Please share the test call associated with `H-RSISGWILSTYLGRP-OH` . 1

###

Target: Human immunodeficiency virus type 1 integrase (Human immunodeficiency virus 1) (UniProt Q7ZJM1)
Sequence (Q7ZJM1 as listed by the source): as the sequence (Q7ZJM1 whole entry) above
Test: Inhibition of recombinant HIV1 integrase 3'-end processing activity
Activity calls are given as the source filed them. The rule behind the calls is not given here.
Outcome field: choose from active, inactive

Write down the call the test reported for this substance. Item: `H-STYLGRPAEPVPLQL-OH` inactive

What is the recorded call for this substance in the test? `H-SGDSDEELLKTVRLI-OH` active

Outcome? `H-DEELLKTVRLIKFLY-OH` active

How did this test come out for `H-RSISGWILSTYLGRP-OH` ? active

Could you kindly confirm the outcome this assay logged for `H-RLIKFLYQSNPPPSP-OH` ? inactive

What did the test return for `H-WRERQRQIRSISGWI-OH` ? inactive

State the result this test recorded for H-LKTVRLIKFLY-OH [LKTVRLIKFLY] . active

Hello, I am checking results. What call was entered for `H-QRQIRSISGWILSTY-OH` ? active
